system: KM12 colon; assay: NCI tumour cell line growth inhibition, 48 h
Measured GI50 of individual entries

The cases that follow already have their GI50 on record.
CCOc1cc(-c2nncn2C)ccc1Nc1ncc2cc(C)nc(NCC(C)(C)C)c2n1; > 100000 nM
CC12OC(CC(O)C1O)n1c3ccccc3c3c4c(c5c6ccccc6n2c5c31)C(=O)N(CCN1CCOCC1)C4=O (stereo not given); 1250 nM
Cn1ncc(C#N)c1-c1ccc2c(c1)CN([C@H](CN)Cc1cccc(F)c1)C2=O; 711 nM
C=C1C(=O)O[C@H]2[C@H]1CC/C(COC(=O)c1cccnc1N)=C\CC[C@@]1(C)O[C@@H]21; 3190 nM
CCN1CCN(c2nc(C)cc(NCc3cc(Nc4ccnc5cc(Cl)ccc45)ccc3F)n2)CC1; 2950 nM
COC(=O)C1C(C(=O)O)C2(c3ccccc3)C(=O)C1(c1ccccc1)C(c1ccccc1)=C2c1ccccc1 (stereo not given); 16000 nM

# input If you can, please state the reported GI50 value of COC(=O)[C@H](Cc1cn(C)cn1)NC(=O)[C@H](CC(=O)OCc1ccccc1)NC(=O)Nc1cc(C(F)(F)F)cc(C(F)(F)F)c1 .
# output 14000 nM

# input If you can, please state the reported GI50 value of Oc1ccc2c(=S)cc(-c3ccc(Br)cc3)oc2c1O .
# output 3350 nM

# input If you can, please state the reported GI50 value of COc1cc2c(cc1OC)C(C(CCCCCC(CCC(C)C)C1NCCc3cc(OC)c(OC)cc31)CCC(C)C)NCC2 (stereo not given) .
# output 438 nM

# input If you can, please state the reported GI50 value of COc1cccc2c1C(=O)c1c(O)c3c(c(O)c1C2=O)C[C@@](O)(/C(CO)=N/NC(=O)CCCCCN1C(=O)C=CC1=O)C[C@@H]3O[C@H]1C[C@H](N)[C@H](O)[C@H](C)O1 .
# output 1980 nM

---

tested on: SN12C renal; assay: NCI tumour cell line growth inhibition, 48 h
MEASURED_ATTRIBUTE: TGI (µM)
Note: unit µM is implicit; provide only the numeric part.

The cases that follow already have their TGI on record.
CN(C)NC1=C([N+](=O)[O-])C=NN(c2ccccc2)C1; 3.22
CCN1CCN(c2nc(C)cc(NCc3cc(Nc4ccnc5cc(Cl)ccc45)ccc3F)n2)CC1; 6.41
CC1=CC(=O)N(c2cccc3c(N4C(=O)C=C(C)C4=O)cccc23)C1=O; 26.5
O=C(Nc1nc(-c2ccc(Cl)cc2)cs1)c1cc(O)c(O)c(O)c1; 3780
Cc1ccc(C[As+](c2ccccc2)(c2ccccc2)c2ccccc2)cc1; 12.1
CN1CCC2(c3ccccc3)CC(=O)/C(=C/c3ccc(Cl)c(Cl)c3)C1C2 (stereo unspecified); 3.72
C=C1C(=O)O[C@H]2[C@H]1CC/C(COC(=O)c1cccnc1N)=C\CC[C@@]1(C)O[C@@H]21; 10.9
Cc1ccc(N2C(=O)C3c4[nH]c5ccc(C)cc5c4C4CCC(C(C)(C)C)CC4C3C2=O)cc1 (stereo unspecified); 27.3
N#Cc1c2ccccc2c(Cc2ccc3c(c2)OCCOCCOCCOCCOCCO3)c2ccccc12; 22.8
Oc1ccc2c(=S)cc(-c3ccc(Br)cc3)oc2c1O; 12.3

# input If you can, please state the reported TGI value of CNC(=O)ON(C(C)=O)C(=O)NC .
# output 166

# input If you can, please state the reported TGI value of COc1ccc(OC)c(Nc2nc3nonc3nc2Nc2cccc(Br)c2)c1 .
# output 7.07

# input If you can, please state the reported TGI value of Cc1cc(O)c2c(c1)C(=O)c1c(c(O)cc(O)c1-c1c(O)cc(O)c3c1C(=O)c1cc(C)cc(O)c1C3=O)C2=O .
# output 41.2

# input If you can, please state the reported TGI value of CC1OC(n2cc(C(F)(F)F)c(=O)[nH]c2=O)C=CC1=O (stereo unspecified) .
# output 57.8

# input If you can, please state the reported TGI value of CC(=Nc1ccc(N(C)C)cc1)c1ccccc1 .
# output 32.1

# input If you can, please state the reported TGI value of C=C1c2nc3ccccc3n2C=C(c2cccc(Cl)c2)N1Cc1ccc(OC)cc1 .
# output 50.3

# input If you can, please state the reported TGI value of CCN(CC)C1Oc2cc3c(cc2C(c2cc(OC)c(O)c(OC)c2)C1C)OCO3 (stereo unspecified) .
# output 36.7

---

system: KM12 colon; assay: NCI tumour cell line growth inhibition, 48 h
MEASURED_ATTRIBUTE: TGI

The cases that follow already have their TGI on record.
COc1ccc(-c2sc(Br)c3c2C(=O)C2OC(=O)NC32)cc1OC (centres undefined); > 100 µM
CN(C)NC(=O)/C(=C/c1ccc(Cl)cc1)NC(=O)c1ccccc1; > 100 µM
O=C1/C(=C\c2ccc(F)cc2)CN(C(=O)c2ccccc2F)C/C1=C\c1ccc(F)cc1; 1.32 µM
CSC1=NN(C(C)=O)C(C(OC(C)=O)C(OC(C)=O)C(OC(C)=O)C(COC(C)=O)OC(C)=O)S1 (centres undefined); > 100 µM
CCOC(=O)[C@@H]1[C@@H](c2ccccc2)N(C)O[C@@]1(c1ccccc1)C(F)(F)F; > 100 µM

# input If you can, please state the reported TGI value of COC(=O)[C@H](Cc1cn(C)cn1)NC(=O)[C@H](CC(=O)OCc1ccccc1)NC(=O)Nc1cc(C(F)(F)F)cc(C(F)(F)F)c1 .
# output 30.7 µM

# input If you can, please state the reported TGI value of C#C[C@@]1(O)[C@@H](CO)O[C@@H](n2cc(Br)c3c(Cl)ccnc32)[C@@H]1O .
# output > 100 µM

# input If you can, please state the reported TGI value of C=C1c2nc3ccccc3n2C=C(c2ccccc2)N1c1ccc(Cl)cc1 .
# output 66.3 µM

# input If you can, please state the reported TGI value of O=S1SC(=S)C2C=CC=NC21 (centres undefined) .
# output > 100 µM

---

tested on: NCI-H460 lung; assay: NCI tumour cell line growth inhibition, 48 h
Measured TGI of individual entries
Note: unit µM is implicit; provide only the numeric part.

# input If you can, please state the reported TGI value of O=C(Oc1ccccc1)N(c1ccccc1)c1ccccc1 .
# output 89.2

# input If you can, please state the reported TGI value of CN1CCC2(c3ccccc3)CC(=O)/C(=C/c3ccc(Cl)c(Cl)c3)C1C2 (centres undefined) .
# output 5.94

# input If you can, please state the reported TGI value of O=C(Nc1nc(-c2ccc(Cl)cc2)cs1)c1cc(O)c(O)c(O)c1 .
# output 964

# input If you can, please state the reported TGI value of Cc1sc(C(=O)c2cncnc2N[C@@H]2C[C@H](COS(N)(=O)=O)[C@@H](O)C2)cc1[C@@H]1NCCc2ccc(Cl)cc21 .
# output 20.6

---

tested on: SK-MEL-5 melanoma; test: NCI tumour cell line growth inhibition, 48 h
MEASURED_ATTRIBUTE: TGI (µM)
Note: unit µM is implicit; provide only the numeric part.

C=C1C(=O)O[C@H]2[C@H]1CC/C(COC(=O)c1cccnc1N)=C\CC[C@@]1(C)O[C@@H]21; 12.5

# input If you can, please state the reported TGI value of CN1CCC2(CC1)N=C(SCC(=O)Nc1cnc3ccccc3c1)C(c1ccc(Br)cc1)=N2 .
# output 3.07

# input If you can, please state the reported TGI value of Nc1ccccc1C#C/C=C\C#Cc1ccccc1C#CCO .
# output 14.1

# input If you can, please state the reported TGI value of Cc1ccc(N)cc1[As]=[As]c1cc(N)ccc1C (centres undefined) .
# output 2.91

# input If you can, please state the reported TGI value of COc1cc2c(cc1OC)C(C(CCCCCC(CCC(C)C)C1NCCc3cc(OC)c(OC)cc31)CCC(C)C)NCC2 (centres undefined) .
# output 3.04

---

Measured TGI of individual entries
system: SK-MEL-5 melanoma; test: NCI tumour cell line growth inhibition, 48 h

The cases that follow already have their TGI on record.
O=C1c2ccccc2C(=O)N1CCCOCc1c[nH]c(=O)[nH]c1=O; > 100 µM
CC(=O)Nc1cc(Cl)cc(Cl)c1O; > 100 µM
CCOC(=O)C1=C(OC(OCC)C([Se]c2ccccc2)C(C)C)CCC1 (stereo not given); 28.8 µM

# input If you can, please state the reported TGI value of C[C@]12CC[C@H](O[C@@H]3O[C@H](CO[C@@H]4O[C@H](CO)[C@@H](O)[C@H](O)[C@H]4O)[C@@H](O)[C@H](O)[C@H]3O)C[C@@H]1CC[C@@H]1[C@@H]2CC[C@]2(C)[C@@H](C3=CC(=O)OC3)CC[C@]12O .
# output 8.52 µM

# input If you can, please state the reported TGI value of Cc1nc2sc(C(=O)Nc3cccc(Br)c3C)c(N)c2cc1C(O)c1ccccc1 (stereo not given) .
# output 0.263 µM

Data origin: PubChem BioAssay (NCI)
